Test system: mouse Notch1-ΔE
Assay: Inhibition of Notch1-ΔE signaling in Hela cells (CBF1-luciferase reporter)
Details: read-out: IC50 for inhibition of Notch1-ΔE signaling
parameterMeasured: pIC50
pIC50 is defined as minus the log10 of a concentration measured in mol/L.

Asked: Return reported pIC50; argument: NC(=O)[C@@H](CCC(F)(F)F)N(Cc1ccc(-c2ncon2)cc1F)S(=O)(=O)c1ccc(Cl)cc1
Given back: 7.24

----------
Experiment: Compound plasma levels / AUC in rat studies
Type: in vivo
Settings: female, Sprague-Dawley, rat, plasma, oral, 300 mg/kg/day, Rat Study No. 3, 300 mg/kg/day, group terminated Day 4; read-out: Plasma Conc. 5hr post dose Day 4
parameterMeasured: concentration at 5 h (µM)
Numeric only. Scale: µM

Asked: Return reported concentration at 5 h; argument: NC(=O)[C@@H](CCC(F)(F)F)N(Cc1ccc(-c2ncon2)cc1F)S(=O)(=O)c1ccc(Cl)cc1
Given back: 10

----------
Assay: Compound plasma levels / AUC in rat studies
Format: in vivo
Conditions: female, Sprague-Dawley, rat, plasma, oral, 30 mg/kg/day, Rat Study No. 3, 30 mg/kg/day, group terminated Day 7; read-out: Plasma Conc. 5hr post dose Day 1
parameterMeasured: concentration at 5 h (µM)
Numeric only. Scale: µM

Asked: Return reported concentration at 5 h; argument: NC(=O)[C@@H](CCC(F)(F)F)N(Cc1ccc(-c2ncon2)cc1F)S(=O)(=O)c1ccc(Cl)cc1
Given back: 7.2

----------
Assay: Compound plasma levels / AUC in rat studies
Assay type: in vivo
Conditions: female, Sprague-Dawley, rat, plasma, oral, 30 mg/kg/day, Rat Study No. 3, 30 mg/kg/day, group terminated Day 7; read-out: Plasma Conc. 5hr post dose Day 7
parameterMeasured: concentration at 5 h (µM)
Numeric only. Scale: µM

Asked: Return reported concentration at 5 h; argument: NC(=O)[C@@H](CCC(F)(F)F)N(Cc1ccc(-c2ncon2)cc1F)S(=O)(=O)c1ccc(Cl)cc1
Given back: 6.2

----------
System: Aβ42
Test: Inhibition of Aβ42 formation in cultured H4 APP751 SWE cells
Type: cell-based
Conditions: H4-8Sw cells, mean ± SD, n = 45
parameterMeasured: IC50 (nM)
Numeric only. Scale: nM

Asked: What is its IC50 for Aβ42? Entry: NC(=O)[C@@H](CCC(F)(F)F)N(Cc1ccc(-c2ncon2)cc1F)S(=O)(=O)c1ccc(Cl)cc1
Given back: 0.27

----------
Test: Compound plasma levels / AUC in rat studies
Format: in vivo
Settings: female, Sprague-Dawley, rat, plasma, oral, 300 mg/kg/day, Rat Study No. 3, 300 mg/kg/day, group terminated Day 4; read-out: Plasma Conc. 5hr post dose Day 1
parameterMeasured: concentration at 5 h

Asked: Return reported concentration at 5 h; argument: NC(=O)[C@@H](CCC(F)(F)F)N(Cc1ccc(-c2ncon2)cc1F)S(=O)(=O)c1ccc(Cl)cc1
Given back: 12 µM

----------
Experiment: Compound plasma levels / AUC in rat studies
Format: in vivo
Conditions: female, Sprague-Dawley, rat, plasma, oral, 300 mg/kg/day, Rat Study No. 3, 300 mg/kg/day, group terminated Day 7; read-out: Plasma Conc. 5hr post dose Day 7
parameterMeasured: concentration at 5 h (µM)
Numeric only. Scale: µM

Asked: Return reported concentration at 5 h; argument: NC(=O)[C@@H](CCC(F)(F)F)N(Cc1ccc(-c2ncon2)cc1F)S(=O)(=O)c1ccc(Cl)cc1
Given back: 11

----------
Test: Compound plasma levels / AUC in rat studies
Format: in vivo
Details: female, Sprague-Dawley, rat, plasma, oral, 30 mg/kg/day, Rat Study No. 3, 30 mg/kg/day, group terminated Day 4; read-out: Plasma Conc. 5hr post dose Day 4
parameterMeasured: concentration at 5 h (µM)
Numeric only. Scale: µM

Asked: Return reported concentration at 5 h; argument: NC(=O)[C@@H](CCC(F)(F)F)N(Cc1ccc(-c2ncon2)cc1F)S(=O)(=O)c1ccc(Cl)cc1
Given back: 5.6

----------
Assay: Compound plasma levels / AUC in rat studies
Format: in vivo
Details: female, Sprague-Dawley, rat, plasma, oral, 30 mg/kg/day, Rat Study No. 3, 30 mg/kg/day, group terminated Day 4; read-out: Plasma Conc. 5hr post dose Day 1
parameterMeasured: concentration at 5 h (µM)
Numeric only. Scale: µM

Asked: Return reported concentration at 5 h; argument: NC(=O)[C@@H](CCC(F)(F)F)N(Cc1ccc(-c2ncon2)cc1F)S(=O)(=O)c1ccc(Cl)cc1
Given back: 5.9
